List of Kd values.
TARGET_OR_SYSTEM: HECT domain of E6AP (Homo sapiens)
Construct: serial dilution of E6AP HECT domain; inferred from pET28a vector and Ni-NTA purification
Sequence (Q05086 518-875 limits assumed): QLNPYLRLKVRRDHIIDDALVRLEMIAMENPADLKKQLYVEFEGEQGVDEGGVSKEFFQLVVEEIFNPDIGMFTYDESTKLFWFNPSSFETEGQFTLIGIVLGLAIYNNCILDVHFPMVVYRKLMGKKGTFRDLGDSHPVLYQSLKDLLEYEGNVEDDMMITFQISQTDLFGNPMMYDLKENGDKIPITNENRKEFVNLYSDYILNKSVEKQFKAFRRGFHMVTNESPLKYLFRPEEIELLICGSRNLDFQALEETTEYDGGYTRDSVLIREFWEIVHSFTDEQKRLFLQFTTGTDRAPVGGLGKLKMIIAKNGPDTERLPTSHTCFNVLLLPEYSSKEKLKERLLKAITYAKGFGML
TEST: Fluorescence polarization binding affinity of FITC-labeled peptides with the E6AP HECT domain
TEST_CONDITIONS: Kd of the peptide-HECT complex

A selection of reference data follows.
COc1cc(CC(=O)N2CC(=O)N[C@@H](Cc3ccccc3)CN(C(=O)CC3CC3)CC(=O)N[C@@H](CC(C)C)CN(CC(N)=O)C(=O)CCSCc3ccc(cc3)C(=O)N[C@@H](CCC(=O)O)CN(C(=O)Cc3ccc4c(c3)OCO4)CC(=O)N[C@@H](CC(C)C)C2)cc(OC)c1 [P5] ... 80 to 218 nM
C[C@H]1CN(C(=O)Cc2ccc3c(c2)OCO3)CC(=O)N[C@@H](Cc2ccccc2)CN(C(=O)Cc2ccc3ccccc3c2)CC(=O)N[C@@H](CCC(=O)O)CN(C(=O)CC2CC2)CC(=O)N[C@@H](Cc2ccccc2)CN(CC(N)=O)C(=O)CCSCc2ccc(cc2)C(=O)N1 [P8] ... 80 to 218 nM
COc1cc(CC(=O)N2CC(=O)N[C@@H](C)CN(C(=O)Cc3cc(OC)cc(OC)c3)CC(=O)N[C@@H](CC(C)C)CN(CC(N)=O)C(=O)CCSCc3ccc(cc3)C(=O)N[C@@H](Cc3ccccc3)CN(C(=O)Cc3ccc4c(c3)OCO4)CC(=O)N[C@@H](Cc3ccccc3)C2)cc(OC)c1 [P7] ... 80 to 218 nM
CC(C)C[C@H]1CN(CC(N)=O)C(=O)CCSCc2ccc(cc2)C(=O)N[C@@H](Cc2ccccc2)CN(C(=O)Cc2ccc3ccccc3c2)CC(=O)N[C@@H](CC(C)C)CN(C(=O)CCC2CCCCC2)CC(=O)N[C@@H](Cc2ccccc2)CN(C(=O)Cc2ccc3c(c2)OCO3)CC(=O)N1 [P4] ... 80 to 218 nM

For CC(C)C[C@H]1CN(CC(N)=O)C(=O)CCSCc2ccc(cc2)C(=O)N[C@@H](C)CN(C(=O)Cc2ccc3ccccc3c2)CC(=O)N[C@@H](CC(C)C)CN(C(=O)CCc2ccccc2)CC(=O)N[C@@H](Cc2ccccc2)CN(C(=O)Cc2ccc3c(c2)OCO3)CC(=O)N1 [P3] the molecule record lists Kd as 80 to 218 nM
